# credit: ChEMBL document CHEMBL2413017

Quick list: pIC50 per entry.
Test system: SK-OV-3
Assay: Cytotoxicity against human SKOV3 cells
Type: functional, cell-based
Quick note: pIC50 means taking -log10 of the concentration in moles per liter.

Record excerpt, results attached:
compound_structure_string=O=C(CCCCCCc1nc2cccc(Cl)c2[nH]1)NO quantity=pIC50 readout_value=5.00
compound_structure_string=O=C(CCCCCCc1nc2ccc(-c3cccc(F)c3)cc2[nH]1)NO quantity=pIC50 readout_value=5.82
compound_structure_string=O=C(CCCCCCc1nc2ccc(F)cc2[nH]1)NO quantity=pIC50 readout_value=5.72
compound_structure_string=CN(C)c1ccc(-c2ccc3nc(CCCCCCC(=O)NO)[nH]c3c2)cc1 quantity=pIC50 readout_value=5.18
compound_structure_string=O=C(CCCCCc1nc2ccccc2[nH]1)NO quantity=pIC50 readout_value=4.96

So what pIC50 did O=C(CCCCCCc1nc2ccccc2n1C1CC1)NO get with SK-OV-3?
5.02

Lab note: need pIC50 for Cn1c(CCCCCCC(=O)NO)nc2ccccc21 on SK-OV-3, anyone have it?
5.52

Record lookup: for SK-OV-3, what pIC50 belongs to COc1ccc(-c2ccc3nc(CCCCCCC(=O)NO)[nH]c3c2)cc1 ?
5.51

Form: Entry = O=C(CCCCCCc1nc2ccc(-c3cncnc3)cc2[nH]1)NO | System = SK-OV-3 | pIC50 = ____
5.59

Give recorded pIC50 with SK-OV-3 for the following compound: CN(C)c1ccc2nc(CCCCCCC(=O)NO)[nH]c2c1
5.92

* * *

Assay: Cytotoxicity against human H23 cells
Type: functional, cell-based
Conditions: NCI-H23
Quantity: IC50 (nM)
Answer in nM, number only, no unit symbol.

Which IC50 is reported for this compound? O=C(CCCCCCc1nc2ccc(Br)cc2[nH]1)NO
560

* * *

Assay: Cytotoxicity against human MIHA cells
Format: functional, cell-based
Quantity: IC50 (nM)
Entry rule: numbers only, all in nM.

Fill in: IC50 of O=C(CCCCCCc1nc2ccc(Br)cc2[nH]1)NO is ___
230

* * *

Molecular target: Histone deacetylase 2 (Homo sapiens)
Sequence (Q92769 whole entry): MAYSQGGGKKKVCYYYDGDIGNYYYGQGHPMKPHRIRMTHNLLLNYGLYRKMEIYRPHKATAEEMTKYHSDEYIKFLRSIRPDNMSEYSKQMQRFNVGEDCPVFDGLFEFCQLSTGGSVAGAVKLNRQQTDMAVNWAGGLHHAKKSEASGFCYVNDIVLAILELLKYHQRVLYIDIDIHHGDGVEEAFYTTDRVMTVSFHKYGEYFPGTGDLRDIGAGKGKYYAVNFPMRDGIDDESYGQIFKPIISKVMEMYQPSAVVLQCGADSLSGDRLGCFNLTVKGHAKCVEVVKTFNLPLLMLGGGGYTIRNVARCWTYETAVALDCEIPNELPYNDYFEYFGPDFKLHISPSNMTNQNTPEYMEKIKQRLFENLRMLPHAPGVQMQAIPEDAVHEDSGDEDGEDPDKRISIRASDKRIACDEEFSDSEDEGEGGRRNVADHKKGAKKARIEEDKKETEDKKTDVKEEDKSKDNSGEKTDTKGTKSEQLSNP
Quantity: IC50 (nM)
A number alone suffices; assume nM.

Look up IC50 with Histone deacetylase 2 (Homo sapiens) for this compound: O=C(CCCCCCc1nc2ccc(Br)cc2[nH]1)NO
34.1

* * *

System: SK-OV-3
Test: Cytotoxicity against human SKOV3 cells
Type: functional, cell-based
Quantity: IC50 (nM)
Form entry: value (nM) — number only.

Reference set (2 entries):
compound_structure_string=O=C(CCCCCCC(=O)Nc1ccccc1)NO readout_value=2300
compound_structure_string=O=C(CCCCCCc1nc2ccccc2n1C1CCCC1)NO readout_value=4800

Now examine the next entry.
What value of measured IC50 is listed for O=C(CCCCCCc1nc2ccc(Br)cc2[nH]1)NO ?
260

* * *

Experiment: Cytotoxicity against human SNU880 cells
Type: functional, cell-based
Quantity: IC50 (nM)
Record the value in nM, omitting the unit from your answer.

Can you look up the measured IC50 of O=C(CCCCCCc1nc2ccc(Br)cc2[nH]1)NO for me?
980

* * *

Target: Histone deacetylase 9 (Homo sapiens)
Sequence (Q9UKV0 whole entry): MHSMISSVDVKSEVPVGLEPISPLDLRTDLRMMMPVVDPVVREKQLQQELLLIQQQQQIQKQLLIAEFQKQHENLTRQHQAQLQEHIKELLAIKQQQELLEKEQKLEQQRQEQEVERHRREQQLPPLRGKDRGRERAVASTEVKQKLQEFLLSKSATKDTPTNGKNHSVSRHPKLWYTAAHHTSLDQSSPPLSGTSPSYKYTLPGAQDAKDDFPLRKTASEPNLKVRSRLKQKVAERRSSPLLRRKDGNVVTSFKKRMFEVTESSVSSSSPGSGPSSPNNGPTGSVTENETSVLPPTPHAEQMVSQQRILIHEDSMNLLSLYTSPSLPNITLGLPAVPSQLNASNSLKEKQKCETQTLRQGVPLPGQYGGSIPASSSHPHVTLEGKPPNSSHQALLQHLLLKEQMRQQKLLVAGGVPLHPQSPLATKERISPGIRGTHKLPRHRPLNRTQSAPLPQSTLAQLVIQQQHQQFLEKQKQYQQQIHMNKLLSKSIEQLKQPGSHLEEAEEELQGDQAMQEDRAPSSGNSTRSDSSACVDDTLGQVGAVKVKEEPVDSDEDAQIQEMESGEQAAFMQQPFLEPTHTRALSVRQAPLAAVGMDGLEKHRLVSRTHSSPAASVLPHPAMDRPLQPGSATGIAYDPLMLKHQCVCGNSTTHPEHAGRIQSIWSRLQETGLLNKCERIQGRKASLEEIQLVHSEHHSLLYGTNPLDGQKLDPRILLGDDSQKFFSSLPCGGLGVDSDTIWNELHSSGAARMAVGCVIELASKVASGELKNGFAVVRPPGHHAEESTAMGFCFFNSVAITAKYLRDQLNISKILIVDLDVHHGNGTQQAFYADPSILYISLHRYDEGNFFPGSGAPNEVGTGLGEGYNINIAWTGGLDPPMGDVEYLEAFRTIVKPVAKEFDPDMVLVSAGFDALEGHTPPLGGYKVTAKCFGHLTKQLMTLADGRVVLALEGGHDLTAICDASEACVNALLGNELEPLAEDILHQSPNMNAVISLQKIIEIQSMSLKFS
Quantity: pIC50
Value format note: pIC50 is -log10 of concentration (mol/L); just state the number.

So what does the record say about pIC50 for O=C(CCCCCCc1nc2ccc(Br)cc2[nH]1)NO ?
8.96

* * *

Target: Protein deacetylase HDAC6 (Homo sapiens)
Sequence (Q9UBN7 whole entry): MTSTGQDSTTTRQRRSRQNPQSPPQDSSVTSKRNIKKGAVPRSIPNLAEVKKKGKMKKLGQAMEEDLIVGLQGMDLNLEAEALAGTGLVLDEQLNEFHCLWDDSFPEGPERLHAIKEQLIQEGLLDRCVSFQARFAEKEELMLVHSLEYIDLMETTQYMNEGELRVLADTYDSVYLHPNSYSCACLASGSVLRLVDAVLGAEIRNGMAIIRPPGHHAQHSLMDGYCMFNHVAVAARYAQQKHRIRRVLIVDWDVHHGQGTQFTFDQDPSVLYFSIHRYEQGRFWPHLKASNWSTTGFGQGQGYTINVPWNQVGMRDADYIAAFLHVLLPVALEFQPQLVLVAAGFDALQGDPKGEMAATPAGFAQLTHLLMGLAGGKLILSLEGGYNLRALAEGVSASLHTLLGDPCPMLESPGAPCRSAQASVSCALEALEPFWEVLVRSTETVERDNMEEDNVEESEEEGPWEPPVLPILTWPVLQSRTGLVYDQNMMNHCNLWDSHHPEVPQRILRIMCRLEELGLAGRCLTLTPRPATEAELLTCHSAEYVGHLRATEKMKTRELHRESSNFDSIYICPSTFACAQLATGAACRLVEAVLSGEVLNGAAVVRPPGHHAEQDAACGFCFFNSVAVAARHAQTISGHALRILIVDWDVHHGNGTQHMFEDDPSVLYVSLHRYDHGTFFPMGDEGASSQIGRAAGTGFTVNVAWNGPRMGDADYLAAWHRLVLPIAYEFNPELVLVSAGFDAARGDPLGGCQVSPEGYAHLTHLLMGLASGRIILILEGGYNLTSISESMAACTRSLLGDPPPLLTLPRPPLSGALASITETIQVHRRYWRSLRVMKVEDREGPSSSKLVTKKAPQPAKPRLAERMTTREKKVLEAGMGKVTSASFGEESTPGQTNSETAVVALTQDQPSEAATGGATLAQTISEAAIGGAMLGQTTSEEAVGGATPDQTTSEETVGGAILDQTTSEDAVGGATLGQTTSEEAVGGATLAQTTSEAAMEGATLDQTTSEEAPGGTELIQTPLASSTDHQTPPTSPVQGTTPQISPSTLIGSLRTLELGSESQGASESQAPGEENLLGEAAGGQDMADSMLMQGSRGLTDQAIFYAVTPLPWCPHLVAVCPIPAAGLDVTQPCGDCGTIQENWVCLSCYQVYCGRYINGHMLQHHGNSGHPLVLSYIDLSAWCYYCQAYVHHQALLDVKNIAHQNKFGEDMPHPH
Quantity: pIC50
// pIC50: -log10(molar conc.)

Form: Entry = O=C(CCCCCCc1nc2ccc(Br)cc2[nH]1)NO | System = Protein deacetylase HDAC6 (Homo sapiens) | pIC50 = ____
8.72

* * *

Tested on: NCI-H295R
Test: Cytotoxicity against human NCI-H295R cells
Assay type: functional, cell-based
Quantity: IC50
Just so you know, I need the unit written after the number.

# query: IC50 of entry O=C(CCCCCCc1nc2ccc(Br)cc2[nH]1)NO
180 nM

* * *

Tested on: SK-OV-3
Experiment: Cytotoxicity against human SKOV3 cells
Type: functional, cell-based
Quantity: log10 of IC50 (log10 of the value in nM)
Please be aware that the numbers have been log10-transformed from IC50 in nM.

Some molecules with known log10 of IC50 results, for comparison:
compound_structure_string=O=C(CCCCCCc1nc2ccc(-c3ccc(F)cc3)cc2[nH]1)NO target=SK-OV-3 readout_value=3.08
compound_structure_string=O=C(CCCCCCc1nc2ccc(-c3ccccc3)cc2[nH]1)NO target=SK-OV-3 readout_value=2.00

Consider the molecule O=C(CCCCCCc1nc2ccc(-c3ccccc3F)cc2[nH]1)NO and give its measured log10 of IC50.
3.87

Which value of log10 of IC50 has been reported for O=C(CCCCCCc1nc2ccc(Cl)cc2[nH]1)NO in the records?
2.51

Give the measured log10 of IC50 of O=C(CCCCCCc1nc2ccccc2[nH]1)NO .
3.43

Recorded log10 of IC50 for COc1ccc2nc(CCCCCCC(=O)NO)[nH]c2c1 , please?
4.04
